pIC50 for assorted compounds
biological target: UniProt:P11597; assay: Inhibition of recombinant human CETP-mediated transfer of [3H]CE from HDL to LDL
pIC50: −log10 of the molar value.
attribute_measured: pIC50

>>> recorded_result("OC(CN(Cc1ccc(OC(F)(F)F)cc1)c1cccc(Oc2ccccc2)c1)C(F)(F)F (configuration not stated)")
5.40
>>> recorded_result("COc1cc(N(Cc2cccc(SC(F)(F)F)c2)C[C@@H](O)C(F)(F)F)cc(OC)c1OC")
5.30
>>> recorded_result("OC(CN(Cc1cccc(C(F)(F)F)c1)c1ccccc1)C(F)(F)F (configuration not stated)")
4.82
>>> recorded_result("OC(CN(Cc1cccc(C(F)(F)F)c1)c1cccc(F)c1)C(F)(F)F (configuration not stated)")
4.40

---

Target: Cholesteryl ester transfer protein (Homo sapiens)
Sequence (P11597 whole entry): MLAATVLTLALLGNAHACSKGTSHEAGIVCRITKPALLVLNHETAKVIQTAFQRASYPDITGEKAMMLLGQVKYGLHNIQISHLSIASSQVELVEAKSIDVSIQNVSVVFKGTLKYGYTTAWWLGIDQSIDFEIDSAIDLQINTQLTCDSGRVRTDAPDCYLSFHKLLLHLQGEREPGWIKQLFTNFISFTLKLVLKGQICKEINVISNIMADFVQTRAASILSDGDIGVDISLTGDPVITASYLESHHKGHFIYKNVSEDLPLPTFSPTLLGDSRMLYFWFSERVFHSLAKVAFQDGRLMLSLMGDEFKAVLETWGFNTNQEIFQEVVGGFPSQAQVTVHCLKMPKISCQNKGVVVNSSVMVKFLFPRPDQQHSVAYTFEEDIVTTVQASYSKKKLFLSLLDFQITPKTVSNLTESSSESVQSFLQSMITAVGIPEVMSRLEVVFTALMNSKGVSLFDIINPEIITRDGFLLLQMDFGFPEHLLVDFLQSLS
Test: Tested for inhibiting CETP-mediated transfer of [3H]-CE from HDL to LDL in vitro under buffered assay conditions in human serum.
Assay type: cell-free
pIC50: −log10 of the molar value.
attribute_measured: pIC50

>>> recorded_result("OC(CN(Cc1cccc(C(F)(F)F)c1)c1cccc(F)c1)C(F)(F)F (stereo unspecified)")
"< 3.70"

---

target: Cholesteryl ester transfer protein (Homo sapiens, UniProt P11597); test: Inhibition of recombinant human CETP-mediated transfer of [3H]CE from HDL to LDL
pIC50: −log10 of the molar value.
pIC50 for assorted compounds
attribute_measured: pIC50

>>> recorded_result("Cc1cccc(CN(CC(O)C(F)(F)F)c2cccc(F)c2)c1 (stereo not drawn)")
"< 4.00"
>>> recorded_result("OC(CN(Cc1ccccc1)c1cccc(F)c1)C(F)(F)F (stereo not drawn)")
"< 4.00"
>>> recorded_result("OC(CN(Cc1ccccc1C(F)(F)F)c1cccc(F)c1)C(F)(F)F (stereo not drawn)")
"< 4.00"
